test system: PPARg:RXRa DBDmut IVT, anti-RXR (DBD mutation: RXRa K156A/R161A, NR concentration 270 nM, RXRa partner concentration 90 nM); test: PBM binding z-score (relative to random genomic background probes); higher = stronger binding; sequences stand for … in GC…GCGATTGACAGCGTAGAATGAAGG
Documented PBM binding z-score across a set of sequences
Form: value (number only, do not type unit).

CCTATTAGTTGACCCTAAGGGCAACCGAAGCTCG | 0.775
CAAACTAGGTCAAGAAAGGTCAAAGTCGAATGAC | 8.14
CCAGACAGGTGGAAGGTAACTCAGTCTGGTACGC | -0.367
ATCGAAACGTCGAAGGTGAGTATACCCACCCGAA | -0.927

Look up PBM binding z-score for this sequence: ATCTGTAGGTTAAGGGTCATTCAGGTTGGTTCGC
3.99

Look up PBM binding z-score for this sequence: TCATATAGGTAAACAGGTGTAAGTCCGTAAGTTA
3.98

====

system: PPARg homodimer (NR concentration 180 nM); test: PBM binding z-score (relative to random genomic background probes); higher = stronger binding; sequences stand for … in GC…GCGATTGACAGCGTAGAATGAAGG
If the reported PBM binding z-score equals or exceeds 2, assign rule met. If not, assign rule not met.

Example entries begin here.
GTACCAAGGTGAAGAGGTCGTTGATGAGTAGGCG | rule not met
CGTCCAAGGTCAATGCTAGGTCAATGAAAGCATT | rule met
CCAGACAGGTGAGAAGGTAGCTCAGCCTCGATTA | rule not met
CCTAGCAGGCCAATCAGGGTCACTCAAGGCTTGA | rule not met
AGAACGAGGGCACCCTGAGTTGATAGCAGAGTAG | rule not met

Answer whether PBM binding z-score of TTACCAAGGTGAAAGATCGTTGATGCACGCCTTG is greater than or equal to 2.
rule not met

====

system: PPARg DBDmut:RXRa IVT, anti-PPARg (DBD mutation: PPARg1 K132A/R137A, NR concentration 270 nM, RXRa partner concentration 90 nM); assay: PBM binding z-score (relative to random genomic background probes); higher = stronger binding; sequences stand for … in GC…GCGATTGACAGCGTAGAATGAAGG
If the reported PBM binding z-score equals or exceeds 0.3, assign 1.0. If not, assign 0.0.

ATATGTAGGTTATCGGGACATTCAGTTTGCGCAT | 1.0
TCTGCTAGGTTAACGATGGTCAGCTAATCTGCTA | 0.0
TGAATGAGGTTCTAAGATCAGGGAACGTTGCAAA | 0.0

Answer whether PBM binding z-score of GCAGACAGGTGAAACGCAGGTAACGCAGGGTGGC is greater than or equal to 0.3.
0.0

Answer whether PBM binding z-score of ATCGAAAAGTCGAGGTGAGTATAGAGAAAGGGAA is greater than or equal to 0.3.
1.0

Answer whether PBM binding z-score of TCATATAGGTAAACTGGTGAAAGTCCGTAAGTTA is greater than or equal to 0.3.
1.0

====

test system: PXR homodimer (NR concentration 270 nM); assay: PBM binding z-score (relative to random genomic background probes); higher = stronger binding; sequences stand for … in GC…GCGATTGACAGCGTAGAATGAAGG
If the reported PBM binding z-score equals or exceeds 0.05, assign MET. If not, assign NOT MET.

Example entries begin here.
AGAACGAGGGCAATGAGTTGATAGGACGGGTGGC | MET
CCTAACAGGCCAATCTGGGTCACTCAAGGCTTGA | NOT MET
AATCCAGGGTCATCGTAGGCCAGAGTACGCACAG | MET
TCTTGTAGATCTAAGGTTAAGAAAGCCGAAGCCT | NOT MET
ACTAGCTGGCCAAGGGTCACTCAAGATTAGTCCG | NOT MET
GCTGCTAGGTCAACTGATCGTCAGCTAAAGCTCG | NOT MET

Shifting focus to the sequence that follows.
Answer whether PBM binding z-score of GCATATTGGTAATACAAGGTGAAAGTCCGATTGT is greater than or equal to 0.05.
NOT MET
